Molecular target: Aspartate--tRNA(Asp/Asn) ligase (Mycobacterium tuberculosis (strain ATCC 25618 / H37Rv)) (UniProt P9WFW3)
Sequence (whole entry): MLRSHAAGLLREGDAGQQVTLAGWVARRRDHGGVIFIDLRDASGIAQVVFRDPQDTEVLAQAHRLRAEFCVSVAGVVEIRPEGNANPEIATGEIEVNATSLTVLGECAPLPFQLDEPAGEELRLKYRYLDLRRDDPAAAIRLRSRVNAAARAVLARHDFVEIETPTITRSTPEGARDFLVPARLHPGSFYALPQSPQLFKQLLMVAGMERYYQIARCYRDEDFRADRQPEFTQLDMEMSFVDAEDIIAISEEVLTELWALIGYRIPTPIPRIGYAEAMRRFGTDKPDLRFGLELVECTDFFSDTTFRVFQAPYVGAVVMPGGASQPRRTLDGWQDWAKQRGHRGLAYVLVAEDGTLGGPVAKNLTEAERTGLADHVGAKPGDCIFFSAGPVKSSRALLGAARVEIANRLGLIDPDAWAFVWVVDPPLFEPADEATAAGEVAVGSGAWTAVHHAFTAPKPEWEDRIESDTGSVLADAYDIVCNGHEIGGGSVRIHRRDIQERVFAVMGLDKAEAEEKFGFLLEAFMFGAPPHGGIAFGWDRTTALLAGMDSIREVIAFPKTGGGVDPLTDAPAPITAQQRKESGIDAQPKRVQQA
Assay: Assay for Asp RNA synthetase-1 from Mycobacterium tuberculosis
Type: functional
Design: scale not given: in the data most compounds retested in dose-response had high values
Details: 30 µM
Observable: Percent Effect (%)
Output spec: scalar in %, unitless text.

What value of Percent Effect has been recorded for this entry: CC(CN1CCOCC1)NC(=O)N(C)Cc1ccc(Cl)s1 (configuration not stated)
1.38

# query: Percent Effect of entry CSc1cccc(CN(C)C(=O)C2CC(=O)N(CCN(C)C)C2)c1 (configuration not stated)
-2.59

Percent Effect for O=C(NCc1cc[nH]n1)N(CCCO)C1CCc2ccccc21 (configuration not stated) ?
1.93

---
Which value of Percent Effect has been reported for Cc1ccc(N2CCN(C(=O)COc3nccc(C)n3)CC2)nn1 in the records?
-6.35

What value of Percent Effect has been recorded for this entry: O=C(NCCn1ccnc1)N1CCN(Cc2cccs2)CC1
0.0694

Would you kindly share the measured Percent Effect for Cc1nc(C2CCN(C(=O)c3cccnc3)CC2)c2sccn12 ?
2.04

Please report the recorded Percent Effect for CCc1cc(NCCc2ccc(O)cc2)n2nccc2n1 .
5.69

Field request: Percent Effect | item: Cc1cc(CN2Cc3ccccc3CC2c2nnc(C)o2)on1 (configuration not stated)
-0.894

Which measured Percent Effect value corresponds to CCCc1n[nH]c(C2CN(CCCOc3ccccc3)CCO2)n1 (configuration not stated) ?
0.946
